The measurements presented in this section are drawn from ChEMBL document CHEMBL1140555.

Listing: pKi of selected compounds
target: Prostaglandin E2 receptor EP4 subtype (Homo sapiens)
Sequence (P35408 whole entry): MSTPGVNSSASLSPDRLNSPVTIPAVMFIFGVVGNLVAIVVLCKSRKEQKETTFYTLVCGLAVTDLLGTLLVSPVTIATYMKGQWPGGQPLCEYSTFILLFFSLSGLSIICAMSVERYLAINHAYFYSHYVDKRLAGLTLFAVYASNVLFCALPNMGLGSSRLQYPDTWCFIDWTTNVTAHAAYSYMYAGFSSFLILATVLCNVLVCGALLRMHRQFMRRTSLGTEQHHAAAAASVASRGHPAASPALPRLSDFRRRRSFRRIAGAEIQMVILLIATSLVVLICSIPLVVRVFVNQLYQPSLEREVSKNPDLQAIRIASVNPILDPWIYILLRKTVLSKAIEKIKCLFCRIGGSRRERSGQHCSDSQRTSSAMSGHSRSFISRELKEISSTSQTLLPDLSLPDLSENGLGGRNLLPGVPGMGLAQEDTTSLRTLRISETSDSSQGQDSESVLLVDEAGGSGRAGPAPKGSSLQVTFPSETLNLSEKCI
The meaning of pKi here: minus log10 of the concentration in molar units.

Past entries and their recorded results:
O=C(O)c1ccc(CCN2C(=O)CCN2CCC(O)Cc2cccc(Br)c2)cc1 (stereo not drawn) | 7.89
CC(CCN1CCC(=O)N1CCc1ccc(C(=O)O)cc1)Cc1cccc(CCc2ccccc2)c1 (stereo not drawn) | 7.36

// next item, pKi requested
[ask] Lab note: Prostaglandin E2 receptor EP4 subtype (Homo sapiens) assay, enter pKi for O=C(O)c1ccc(CCN2C(=O)CCN2CC[C@@H](O)Cc2cccc(Br)c2)cc1 here
[reply] 7.89

###

assay: Metabolic stability in rat liver microsomes after 1 hr; format: ADME, Microsome; details: read-out: Stability
MEASURED_METRIC: remaining at 1 h (%)
Give your result in % as a bare value.

[ask] Please indicate remaining at 1 h recorded for O=C(O)c1ccc(CCN2C(=O)CCN2CCC(O)Cc2cccc(Br)c2)cc1 (stereo unspecified)
[reply] 7

###

assay: Metabolic stability in human liver microsomes after 1 hr; format: ADME, Microsome; conditions: read-out: Stability
MEASURED_METRIC: remaining at 1 h (%)
Return type: number; implicit unit %.

[ask] Note down remaining at 1 h recorded for O=C(O)c1ccc(CCN2C(=O)CCN2CCC(O)Cc2cccc(Br)c2)cc1 (stereo unspecified)
[reply] 0

###

experiment: Solubility in HBSS; assay type: physicochemical
MEASURED_METRIC: solubility (mg/mL)
Quick reminder: number only, in mg/mL, skip the unit.

[ask] In one line, give reported solubility of the entry O=C(O)c1ccc(CCN2C(=O)CCN2CCC(O)Cc2cccc(Br)c2)cc1 (stereo unspecified) .
[reply] 0.89

###

What follows is a record of Ki for UniProt:P43116.
Sequence (P43116 whole entry): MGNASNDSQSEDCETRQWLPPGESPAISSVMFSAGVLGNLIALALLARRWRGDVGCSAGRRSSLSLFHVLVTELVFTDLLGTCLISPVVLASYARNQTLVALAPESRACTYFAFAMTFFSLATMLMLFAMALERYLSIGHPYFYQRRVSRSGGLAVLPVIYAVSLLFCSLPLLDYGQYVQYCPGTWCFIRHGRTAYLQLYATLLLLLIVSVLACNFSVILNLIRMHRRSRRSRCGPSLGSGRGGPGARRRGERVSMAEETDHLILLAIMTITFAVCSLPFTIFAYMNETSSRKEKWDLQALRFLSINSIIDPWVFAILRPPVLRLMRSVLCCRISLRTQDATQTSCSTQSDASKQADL
Unit µM implied. Number only.

CCCC1(C(O)CCCN2CCC(=O)N2CCc2ccc(C(=O)O)cc2)CCC1 (centres undefined) | 0.75
O=C(O)c1ccc(CCN2C(=O)CCN2CC[C@@H](O)Cc2ccccc2)cc1 | 9.2
O=C(O)c1ccc(CCN2C(=O)CCN2CC[C@@H](O)Cc2cccc(I)c2)cc1 | 2.03

// next entry
[ask] Give measured Ki for CCCC1([C@H](O)C/C=C/[C@H]2[C@H](O)CC(=O)[C@@H]2CCCCCCC(=O)OC)CCC1 (UniProt:P43116).
[reply] 0.11

###

experiment: Oral bioavailability in rat; type: ADME, organism-based; conditions: in vivo
MEASURED_METRIC: bioavailability
The answer should read as a number with its unit following.

[ask] Read off the recorded bioavailability for O=C(O)c1ccc(CCN2C(=O)CCN2CCC(O)Cc2cccc(Br)c2)cc1 (stereo unspecified)
[reply] 6.7%

###

assay: Solubility in saline; assay type: physicochemical
MEASURED_METRIC: solubility (µg/mL)
Kindly answer with a numeric value in µg/mL, unit omitted.

[ask] Read the entry O=C(O)c1ccc(CCN2C(=O)CCN2CCC(O)Cc2cccc(Br)c2)cc1 (stereo unspecified) and write its reported solubility.
[reply] 840

###

assay: Half life in rat; type: ADME, organism-based; conditions: in vivo
MEASURED_METRIC: half-life (h)
Write the answer as a number in h, unit excluded.

[ask] Give half-life for O=C(O)c1ccc(CCN2C(=O)CCN2CCC(O)Cc2cccc(Br)c2)cc1 (stereo unspecified)
[reply] 4.25
